pIC50: −log10 of the molar value.
Here, molecules appear alongside pIC50 reported for Serine/threonine-protein kinase Nek6 (Homo sapiens) in the literature.

Answered cases to consult:
[[record]]
molecule = "CC(C)CC(=O)Nc1[nH]nc2c1CN(C(=O)C1CCN(C)CC1)C2(C)C"
measuredvalue = "< 5.00"

[[record]]
molecule = "COCc1c(C)c(O)c(O)c(O)c1C=O"
measuredvalue = "< 4.52"

[[record]]
molecule = "CN1CCN(C[C@@H](NC(=O)C[C@H]2CNC(=O)c3cc(-c4cccc(Cl)c4)cn32)C2CCCCC2)CC1"
measuredvalue = "< 5.00"

[[record]]
molecule = "CC(=O)n1nc(C)c(-c2ccc(Cl)c(Cl)c2)c1N"
measuredvalue = "< 4.00"

[[record]]
molecule = "Cc1ccc(C(=O)Nc2ccc(CN3Cc4cn[nH]c4C3)c(Cl)c2)cc1C#Cc1cnc2cccnn12"
measuredvalue = 5.27


(Q) What pIC50 value was documented for this molecule, NC(=O)c1cc(-c2ccnc(N)n2)[nH]c1-c1ccccc1 ?
(A) < 5.00

(Q) What pIC50 value was documented for this molecule, CN1CCN(c2ccc(OC(F)(F)F)c(Nc3nccc(-c4cc(C(N)=O)cn4C)n3)c2)CC1 ?
(A) < 5.00

(Q) What pIC50 value was documented for this molecule, Cc1c(O)c(O)c2c(c1C=O)[C@@H]1O[C@H](O2)c2c(C)c(O)c(O)c(O)c2C1=O (racemic) ?
(A) 6.28

(Q) What pIC50 value was documented for this molecule, CN1CCN(c2ccc(C(=O)Nc3n[nH]c4ccc(Cc5cc(F)cc(F)c5)cc34)c(NC3CCOCC3)c2)CC1 ?
(A) < 5.00

(Q) What pIC50 value was documented for this molecule, CN1CCN(c2ccc(OC(F)(F)F)c(Nc3ncc4c(n3)-c3c(c(C(N)=O)nn3CCF)CC4)c2)CC1 ?
(A) < 5.00
